Reported bioavailability is given for each of the following compounds.
- TEST_DETAILS: Oral bioavailability in Sprague-Dawley rat at 10 mg/kg measured up to 24 hrs by LC-MS/MS analysis
- Assay type: ADME, organism-based
- CONDITION_DESCRIPTION: in vivo
Just the number please, in %, no unit attached.

>>> recorded_value("C[C@@H](C1CC1)N1Cc2cc(-c3ccn4nc(N)c(C(=O)N[C@H]5CC[C@@](C)(O)CC5)c4n3)cc(OC(F)(F)F)c2C1=O")
4

Could you now consider this next compound?
Need bioavailability, item "C[C@@H](C1CC1)N1Cc2cc(-c3ccn4nc(N)c(C(=O)N[C@H]5CC[C@@](C)(O)CC5)c4n3)cc(OC(F)F)c2C1=O" 102

---

- TEST_TARGET: UniProtKB P11712
- Sequence (P11712 whole entry): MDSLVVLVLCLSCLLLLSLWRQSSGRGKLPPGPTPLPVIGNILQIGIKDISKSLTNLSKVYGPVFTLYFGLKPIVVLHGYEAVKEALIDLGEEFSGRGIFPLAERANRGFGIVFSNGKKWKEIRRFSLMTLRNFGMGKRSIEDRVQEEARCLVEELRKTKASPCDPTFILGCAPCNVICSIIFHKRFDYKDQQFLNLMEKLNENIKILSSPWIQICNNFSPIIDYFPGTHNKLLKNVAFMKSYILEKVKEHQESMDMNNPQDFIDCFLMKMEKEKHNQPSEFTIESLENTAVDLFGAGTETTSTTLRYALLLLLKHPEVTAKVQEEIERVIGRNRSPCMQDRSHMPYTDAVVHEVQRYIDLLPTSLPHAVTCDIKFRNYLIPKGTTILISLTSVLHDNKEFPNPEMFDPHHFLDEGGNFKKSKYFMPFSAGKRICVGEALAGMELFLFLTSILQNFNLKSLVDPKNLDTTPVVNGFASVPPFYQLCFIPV
- TEST_DETAILS: Time dependent inhibition of CYP2C9 in human liver microsomes at 40 uM using diclofenac as substrate measured after 5 to 20 mins in presence of NADPH by LC/MS/MS analysis
- Type: ADME, Microsome
pIC50: −log10 of the molar value.
VALUE_KIND: pIC50

Need pIC50, item "C[C@@H](C1CC1)N1Cc2cc(-c3ccn4nc(N)c(C(=O)N[C@H]5CC[C@@](C)(O)CC5)c4n3)cc(OC(F)F)c2C1=O" < 4.70

---

- TEST_TARGET: Cytochrome P450 2D6 (Homo sapiens, UniProt P10635)
- Sequence (P10635 whole entry): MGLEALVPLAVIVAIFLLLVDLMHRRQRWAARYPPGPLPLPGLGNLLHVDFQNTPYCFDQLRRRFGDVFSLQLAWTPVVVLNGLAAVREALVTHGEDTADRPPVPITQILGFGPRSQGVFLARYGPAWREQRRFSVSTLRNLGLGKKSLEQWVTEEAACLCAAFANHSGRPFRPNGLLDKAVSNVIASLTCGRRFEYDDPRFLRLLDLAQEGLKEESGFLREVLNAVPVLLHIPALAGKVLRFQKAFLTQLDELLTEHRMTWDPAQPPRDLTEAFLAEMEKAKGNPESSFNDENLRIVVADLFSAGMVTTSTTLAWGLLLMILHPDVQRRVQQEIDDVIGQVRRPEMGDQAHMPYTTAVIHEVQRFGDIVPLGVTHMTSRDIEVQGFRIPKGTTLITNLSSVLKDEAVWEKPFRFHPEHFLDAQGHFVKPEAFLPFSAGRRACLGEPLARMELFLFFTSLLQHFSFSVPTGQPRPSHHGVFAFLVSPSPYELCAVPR
- TEST_DETAILS: Time dependent inhibition of CYP2D6 in human liver microsomes at 40 uM using dextromethorphan as substrate measured after 5 to 20 mins in presence of NADPH by LC/MS/MS analysis
VALUE_KIND: IC50

Need IC50, item "C[C@@H](C1CC1)N1Cc2cc(-c3ccn4nc(N)c(C(=O)N[C@H]5CC[C@@](C)(O)CC5)c4n3)cc(OC(F)F)c2C1=O" > 20 µM

---

- TEST_DETAILS: Volume of distribution at steady state in Sprague-Dawley rat at 1 mg/kg, iv measured up to 8 hrs by LC-MS/MS analysis
- Assay type: ADME, organism-based
- CONDITION_DESCRIPTION: in vivo
VALUE_KIND: Vdss (L/kg)
Just the number please, in L/kg, no unit attached.

>>> recorded_value("C[C@@H](C1CC1)N1Cc2cc(-c3ccn4nc(N)c(C(=O)N[C@H]5CC[C@@](C)(O)CC5)c4n3)cc(OC(F)F)c2C1=O")
3.03

Could you now consider this next molecule?
Need Vdss, item "C[C@@H](C1CC1)N1Cc2cc(-c3ccn4nc(N)c(C(=O)N[C@H]5CC[C@@](C)(O)CC5)c4n3)cc(OC(F)(F)F)c2C1=O" 2.91

---

- Species: Homo sapiens
- TEST_DETAILS: Selectivity ratio of IC50 for inhibition of PI3Kdelta (unknown origin) to IC50 for inhibition of PI3Kgamma (unknown origin)
One threshold, 200, splits the recorded Ratio IC50 values: lower ones are 1 (yes), equal or higher ones are 0 (no).

Is 200 strictly greater than the molecule's reported Ratio IC50? molecule: "C[C@H](N1Cc2cc(-c3ccn4nc(N)c(C(=O)N[C@@H](CO)C5CC5)c4n3)cc(NS(C)(=O)=O)c2C1=O)C(F)(F)F" 0 (no)

Is 200 strictly greater than the molecule's reported Ratio IC50? molecule: "C[C@H](N1Cc2cc(-c3ccn4nc(N)c(C(=O)N[C@@H](CO)C5CC5)c4n3)cc(C3CC3)c2C1=O)C(F)(F)F" 0 (no)

Is 200 strictly greater than the molecule's reported Ratio IC50? molecule: "Cc1cc(-c2ccn3nc(N)c(C(=O)N[C@H](C)CO)c3n2)cc2c1C(=O)N([C@@H](C)C1CC1)C2" 0 (no)

Is 200 strictly greater than the molecule's reported Ratio IC50? molecule: "C[C@@H](C1CC1)N1Cc2cc(-c3ccn4nc(N)c(C(=O)NC5CC5)c4n3)cc(NS(C)(=O)=O)c2C1=O" 1 (yes)

Is 200 strictly greater than the molecule's reported Ratio IC50? molecule: "C[C@H](N1Cc2cc(-c3ccn4nc(N)c(C(=O)N[C@H]5CC[C@@](C)(O)CC5)c4n3)cc(NS(C)(=O)=O)c2C1=O)C(F)(F)F" 1 (yes)

Is 200 strictly greater than the molecule's reported Ratio IC50? molecule: "Cc1cc(-c2ccn3nc(N)c(C(=O)N[C@@H]4CC[C@@H](O)C4)c3n2)cc2c1C(=O)N([C@@H](C)C1CC1)C2" 1 (yes)

Is 200 strictly greater than the molecule's reported Ratio IC50? molecule: "Cc1cc(-c2ccn3nc(N)c(C(=O)N[C@H]4CCOC4)c3n2)cc2c1C(=O)N([C@@H](C)C1CC1)C2" 0 (no)

Is 200 strictly greater than the molecule's reported Ratio IC50? molecule: "C[C@@H](C1CC1)N1Cc2cc(-c3ccn4nc(N)c(C(=O)NC5CC5)c4n3)cc(Cl)c2C1=O" 0 (no)

Is 200 strictly greater than the molecule's reported Ratio IC50? molecule: "C[C@H](N1Cc2cc(-c3ccn4nc(N)c(C(=O)N[C@@H](CO)C5CC5)c4n3)cc(OC(F)F)c2C1=O)C(F)(F)F" 1 (yes)

Is 200 strictly greater than the molecule's reported Ratio IC50? molecule: "C[C@@H](C1CC1)N1Cc2cc(-c3ccn4nc(N)c(C(=O)NC5CC5)c4n3)cc(S(=O)(=O)C3CCC3)c2C1=O" 1 (yes)

Data provenance: ChEMBL document CHEMBL5154644
